System: Vero
Test: Cytotoxicity against uninfected Vero cells
Type: cell-based
Details: read-out: Cytotoxicity IC50 Vero; uninfected Vero cells
pIC50: −log10 of the molar value.
property label: pIC50

molecule | property label | reported result
CC1=C2Cc3cc(ccc3O)C(=O)O[C@H](C(C)(C)Br)CC[C@](C)(O)[C@H](Br)CC[C@]2(C)[C@@H](Br)CC1 [Compound 1, bromophycolide A] | pIC50 | 4.46

* * *

System: P. falciparum (3D7)
Assay: P. falciparum 3D7 proliferation
Format: cell-based, Plasmodium falciparum
Conditions: read-out: P. falciparum (3D7) IC50; 3D7 strain

compound | IC50
CC1=C2Cc3cc(ccc3O)C(=O)O[C@H](C(C)(C)O)CC[C@](C)(O)[C@H](Br)CC[C@]2(C)[C@@H](Br)CC1 [Compound 2, bromophycolide C] | 56000 nM
C=C(C)[C@@H]1CC[C@](C)(O)[C@H](Br)CC[C@@]2(C)[C@H](Cc3cc(ccc3O)C(=O)O1)C(=C)CC[C@@H]2Br [Compound 4, bromophycolide E] | 820 nM
C=C(C)[C@@H]1CCC(C)(O)[C@H](Br)CC[C@@]2(C)C(=C(C)CC[C@@H]2Br)Cc2cc(ccc2O)C(=O)O1 (stereo partly shown) [Compound 5, bromophycolide M] | 550 nM
CC1=C2Cc3cc(ccc3O)C(=O)O[C@H](C(C)(C)Br)CC[C@](C)(O)[C@H](Br)CC[C@]2(C)[C@@H](Br)CC1 [Compound 1, bromophycolide A] | 500 nM

* * *

System: HepG2
Assay: Cytotoxicity against uninfected HepG2 cells
Type: cell-based
Conditions: read-out: Cytotoxicity IC50 HepG2

compound | unit info | IC50
CC1=C2Cc3cc(ccc3O)C(=O)O[C@H](C(C)(C)Br)CC[C@](C)(O)[C@H](Br)CC[C@]2(C)[C@@H](Br)CC1 [Compound 1, bromophycolide A] | µM | 21.3
